# System: HCT116 cells
# Assay protocol: Annexin V staining
# Type: cell-based, human
# Measurement setup: SAHA 5 µM, quercetin 100 µM, QMJ-2 100 µM, QMJ-5 50 µM, normal control 21.30%
# Lookup of reported percentage of cells undergoing late apoptosis (Late Apop./Dead, annexin V) keyed by entry
Express the result in % but write the number alone.

# example entries with known answers
O=C(CCCCCCC(=O)Nc1ccccc1)NO [SAHA, reference compound]
27.65
Cc1ccc(-c2oc3cc(C)ccc3c(=O)c2O)cc1 [QMJ-5]
38.65
O=c1c(O)c(-c2ccc(O)c(O)c2)oc2cc(O)cc(O)c12 [Quercetin, quercetin, reference compound]
35.80

Pending compound:
# lookup: percentage of cells undergoing late apoptosis (Late Apop./Dead, annexin V) of Cc1ccc(-c2oc3ccccc3c(=O)c2O)cc1 [QMJ-2]
35.20
